// values below are reported hAPJ Ca2+ Flux EC50
Biological target: T1, human APJ receptor (hAPJ) (human, UniProt P35414 1-380)
T1 sequence (looked up): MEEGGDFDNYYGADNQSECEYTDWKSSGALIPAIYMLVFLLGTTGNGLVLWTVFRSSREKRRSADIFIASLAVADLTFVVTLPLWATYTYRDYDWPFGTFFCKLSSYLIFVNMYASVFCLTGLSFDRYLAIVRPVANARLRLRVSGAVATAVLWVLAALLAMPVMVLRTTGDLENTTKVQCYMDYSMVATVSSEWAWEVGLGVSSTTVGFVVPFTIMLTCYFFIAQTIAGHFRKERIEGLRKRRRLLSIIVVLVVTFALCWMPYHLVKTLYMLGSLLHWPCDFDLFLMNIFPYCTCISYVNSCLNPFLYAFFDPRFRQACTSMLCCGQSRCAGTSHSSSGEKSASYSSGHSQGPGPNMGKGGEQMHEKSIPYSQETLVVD
Assay: cell-based or functional assay
Bridges are numbered along the chain shown (N, C = ends). [ ]: non-standard residue; d: D form. The star is where a group is joined. Myristoyl = CCCCCCCCCCCCCC(=O)*; pGlu = O=C1CC[C@@H](C(=O)O)N1; Nle = CCCC[C@H](N)C(=O)O; AEEA = NCCOCCOCC(=O)O; Aib = CC(C)(N)C(=O)O
Just the number in µM, nothing appended.

stdin: Entry [pGlu]RPRLC[Aib]KGP[Nle]CF-OH (disulfide 6-12; SMILES CCCC[C@@H]1NC(=O)[C@@H]2CCCN2C(=O)CNC(=O)[C@H](CCCCN)NC(=O)C(C)(C)NC(=O)[C@@H](NC(=O)[C@H](CC(C)C)NC(=O)[C@H](CCCNC(=N)N)NC(=O)[C@@H]2CCCN2C(=O)[C@H](CCCNC(=N)N)NC(=O)[C@@H]2CCC(=O)N2)CSSC[C@@H](C(=O)N[C@@H](Cc2ccccc2)C(=O)O)NC1=O) [Example 9: pE-R-P-R-L-C-Aib-K-G-P-Nle-C-F-OH] : reported hAPJ Ca2+ Flux EC50 = ?
stdout: 0.00216

stdin: Try this binder next: Myristoyl-[AEEA][AEEA]QRPRLCHKGP[Nle]C[dF]-OH (disulfide 8-14; SMILES CCCCCCCCCCCCCC(=O)NCCOCCOCC(=O)NCCOCCOCC(=O)N[C@@H](CCC(N)=O)C(=O)N[C@@H](CCCNC(=N)N)C(=O)N1CCC[C@H]1C(=O)N[C@@H](CCCNC(=N)N)C(=O)N[C@@H](CC(C)C)C(=O)N[C@H]1CSSC[C@@H](C(=O)N[C@H](Cc2ccccc2)C(=O)O)NC(=O)[C@H](CCCC)NC(=O)[C@@H]2CCCN2C(=O)CNC(=O)[C@H](CCCCN)NC(=O)[C@H](Cc2c[nH]cn2)NC1=O) [Example 58: Myristoyl-O2Oc-O2Oc-Q-R-P-R-L-C-H-K-G-P-Nle-C-f-OH]
stdout: 0.0131

stdin: Try this binder next: [pGlu]FPRLCHKGP[Nle]CF-OH (disulfide 6-12; SMILES CCCC[C@@H]1NC(=O)[C@@H]2CCCN2C(=O)CNC(=O)[C@H](CCCCN)NC(=O)[C@H](Cc2c[nH]cn2)NC(=O)[C@@H](NC(=O)[C@H](CC(C)C)NC(=O)[C@H](CCCNC(=N)N)NC(=O)[C@@H]2CCCN2C(=O)[C@H](Cc2ccccc2)NC(=O)[C@@H]2CCC(=O)N2)CSSC[C@@H](C(=O)N[C@@H](Cc2ccccc2)C(=O)O)NC1=O) [Example 31: pE-F-P-R-L-C-H-K-G-P-Nle-C-F-OH]
stdout: 0.0841
